Just for reference, patent US20230143612A1 is where these values come from.

TESTED_TARGET: PD-L1 His protein / PD-1 Fc protein (Homo sapiens)
Sequence (Q9NZQ7 19-238 limits assumed): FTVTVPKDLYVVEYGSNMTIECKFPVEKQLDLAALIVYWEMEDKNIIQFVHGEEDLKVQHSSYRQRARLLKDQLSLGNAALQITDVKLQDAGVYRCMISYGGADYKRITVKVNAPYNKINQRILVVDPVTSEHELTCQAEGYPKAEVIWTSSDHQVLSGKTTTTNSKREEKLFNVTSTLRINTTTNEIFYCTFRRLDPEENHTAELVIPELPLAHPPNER
ASSAY_EXPLANATION: HTRF Assay (PD-1/PD-L1 interaction)
MEASUREMENT_SETUP: PD-L1 His 6 nM, PD-1 Fc 6 nM
pIC50: −log10 of the molar value.

{"columns": ["COMPOUND", "pIC50"],
 "data": [
  ["COc1nc(-c2cccc(-c3cccc(-c4cc5c(=O)n(C)c(CNC(C)C)nn5c4)c3Cl)c2Cl)ccc1CNC[C@@H]1CCC(=O)N1", 7.77],
  ["COc1nc(-c2cccc(-c3cccc(-c4ccn5c(=O)c(C)c(CNC[C@@H]6CCC(=O)N6)nc5c4)c3Cl)c2Cl)ccc1CNC[C@@H]1CCC(=O)N1", 7.22],
  ["O=C1CC[C@@H](CNC2COc3nc(-c4cccc(-c5cccc(-c6ccc7c(n6)OCC7NC[C@@H]6CCC(=O)N6)c5Cl)c4Cl)ccc32)N1 (stereo partly drawn)", 6.26]
]}
